Values from patent US12371428B2

# TARGET DESC: Human MET (residues 956-1390) (Homo sapiens (Human))
# Sequence (P08581 956-1390): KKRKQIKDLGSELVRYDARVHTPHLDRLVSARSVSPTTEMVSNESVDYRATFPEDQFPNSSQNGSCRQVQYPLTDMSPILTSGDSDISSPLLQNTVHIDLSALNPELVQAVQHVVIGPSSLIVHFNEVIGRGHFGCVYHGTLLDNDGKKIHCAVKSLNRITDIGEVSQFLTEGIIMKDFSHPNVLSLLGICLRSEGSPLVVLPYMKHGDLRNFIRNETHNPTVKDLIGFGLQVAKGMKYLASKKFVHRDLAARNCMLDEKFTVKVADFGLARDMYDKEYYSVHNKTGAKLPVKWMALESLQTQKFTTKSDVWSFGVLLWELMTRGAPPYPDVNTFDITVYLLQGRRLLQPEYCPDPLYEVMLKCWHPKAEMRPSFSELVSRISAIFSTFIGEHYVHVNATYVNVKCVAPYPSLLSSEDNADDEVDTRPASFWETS
# METHOD: Human Met kinase assay, HTRF KinEase (Example D-2)
# Format: biochemical
# PROTOCOL CONDITIONS: protocol of Example D-2 (other compounds); read-out: c-Met IC50
Measured IC50, listed per entry for reference.

COc1cnc2c(Oc3ccc(NC(=O)c4c(C)ncn(-c5ccc(F)cc5)c4=O)cc3)ccnc2c1 0.1 to 0.3 µM
COc1cc2nccc(Oc3ccc(NC(=O)c4c(C)cc(C)n(-c5ccc(F)cc5)c4=O)cc3)c2nc1OC < 0.1 µM
COc1cc2nccc(Oc3ccc(NC(=O)c4c(C)nc(OC)c(-c5ccc(F)cc5)c4OC)cc3F)c2nc1OC > 0.3 µM
COc1ccc2nccc(Oc3ccc(NC(=O)c4c(C)nc(C)c(-c5ccc(F)cc5)c4O)cc3F)c2c1 < 0.1 µM

Recorded result, `C=Cc1cc2nccc(Oc3ccc(NC(=O)c4cnc(C)c(-c5ccc(F)cc5C)c4O)cc3F)c2nc1OC` , IC50: 0.1 to 0.3 µM

Recorded result, `COc1cc2nccc(Oc3ccc(NC(=O)c4cn(OC)cc(-c5ccc(F)cc5)c4=O)cc3)c2nc1OC` , IC50: < 0.1 µM

Recorded result, `COc1ccc2nccc(Oc3ccc(NC(=O)c4c(C)nc(C)c(-c5ccc(F)cc5)c4O)cc3F)c2n1` , IC50: < 0.1 µM

Recorded result, `COc1ccc2nccc(Oc3ccc(NC(=O)c4c(C)ncc(-c5ccc(F)cc5)c4O)cc3F)c2n1` , IC50: < 0.1 µM

* * *

Measured IC50, listed per entry for reference.
# TARGET DESC: Human MET (residues 956-1390) (Homo sapiens (Human))
# METHOD: Human Met kinase assay, HTRF KinEase (Example D-2)
# Assay type: biochemical
# PROTOCOL CONDITIONS: protocol of Example D-2; read-out: c-Met IC50
Where a name gives a salt, the structure may show the parent alone.

COMPOUND	RESULT
CCc1nc(C)c(-c2ccc(F)cc2)c(O)c1C(=O)Nc1ccc(Oc2ccnc3ccc(OC)nc23)cc1	< 100 nM
CCn1cc(C(=O)Nc2ccc(Oc3ccnc4cc(OC)c(OC)nc34)c(F)c2)c(=O)c(-c2ccc(F)cc2)c1CF	100 to 300 nM

For the next question, use this compound.
Here COc1nc2c(Oc3ccc(NC(=O)c4cnc(C)c(-c5ccc(F)cc5)c4O)cc3F)ccnc2cc1-c1cccnc1 [Compound 604, hydrochloride] was tested on Human MET (residues 956-1390) (Homo sapiens (Human)), and its IC50 came to < 100 nM

* * *

Measured IC50, listed per entry for reference.
# TARGET DESC: Human KDR (residues 790-1356) (Homo sapiens (Human), UniProt P35968)
# Sequence (P35968 790-1356): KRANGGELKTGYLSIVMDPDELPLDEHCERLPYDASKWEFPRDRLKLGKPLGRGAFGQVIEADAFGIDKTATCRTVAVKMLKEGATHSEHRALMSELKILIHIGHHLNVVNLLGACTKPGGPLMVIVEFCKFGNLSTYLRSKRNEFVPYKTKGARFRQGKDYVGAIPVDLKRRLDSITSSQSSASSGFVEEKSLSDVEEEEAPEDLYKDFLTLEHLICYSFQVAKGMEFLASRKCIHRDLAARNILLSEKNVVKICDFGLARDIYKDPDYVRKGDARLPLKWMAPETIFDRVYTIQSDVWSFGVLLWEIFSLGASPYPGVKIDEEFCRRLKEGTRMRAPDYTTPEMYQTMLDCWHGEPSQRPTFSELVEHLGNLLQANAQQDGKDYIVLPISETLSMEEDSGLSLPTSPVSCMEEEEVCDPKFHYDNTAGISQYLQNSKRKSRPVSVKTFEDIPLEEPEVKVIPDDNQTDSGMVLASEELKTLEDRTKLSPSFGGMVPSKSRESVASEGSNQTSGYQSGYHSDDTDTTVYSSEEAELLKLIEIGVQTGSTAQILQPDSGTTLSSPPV
# METHOD: Human KDR kinase assay, HTRF KinEase (Example B-2)
# Assay type: biochemical
# PROTOCOL CONDITIONS: protocol of Example B-2 (other compounds)

Solved entries:
COMPOUND	TARGET DESC	RESULT
COc1cnc2c(Oc3ccc(NC(=O)c4cn(C)c(C)c(-c5ccc(F)cc5)c4=O)cc3F)ccnc2c1 [Compound 156]	Human KDR (residues 790-1356) (Homo sapiens (Human), UniProt P35968)	> 0.3 µM
Cc1nc(C)c(-c2ccc(F)cc2)c(O)c1C(=O)Nc1ccc(Oc2ccnc3cc(OCc4ccccc4)cnc23)c(F)c1 [Compound 277]	Human KDR (residues 790-1356) (Homo sapiens (Human), UniProt P35968)	0.1 to 0.3 µM
COc1cc2nccc(Oc3c(F)cc(NC(=O)c4cn(C)c(C)c(-c5ccc(F)cc5)c4=O)cc3F)c2nc1OC [Compound 392]	Human KDR (residues 790-1356) (Homo sapiens (Human), UniProt P35968)	> 0.3 µM
COc1cc2nccc(Oc3ccc(NC(=O)c4cn(-c5cn[nH]c5)cc(-c5ccc(F)cc5)c4=O)cc3F)c2nc1OC [Compound 62]	Human KDR (residues 790-1356) (Homo sapiens (Human), UniProt P35968)	> 0.3 µM
CCc1nc(C)c(-c2ccc(F)cc2C)c(O)c1C(=O)Nc1ccc(Oc2ccnc3cc(OC)cnc23)c(F)c1 [Compound 204]	Human KDR (residues 790-1356) (Homo sapiens (Human), UniProt P35968)	0.1 to 0.3 µM

Recorded result, C=C(C)c1cc(C(=O)Nc2ccc(Oc3ccnc4cc(OC)c(OC)nc34)c(F)c2)c(=O)n(-c2ccc(F)cc2)c1C [Compound 367] , IC50: > 0.3 µM

Recorded result, COc1cc2nccc(Oc3ccc(NC(=O)c4cn(C)c(C#N)c(-c5ccc(F)cc5)c4=O)cc3F)c2nc1OC [Compound 77] , IC50: > 0.3 µM

Recorded result, COCCOc1nc2c(Oc3ccc(NC(=O)c4cn(C)c(C)c(-c5ccc(F)cc5C)c4=O)cc3F)ccnc2cc1OC [Compound 200] , IC50: > 0.3 µM

Recorded result, COc1cc2nccc(Oc3ccc(NC(=O)c4nn(C(C)C)c(C)c(-c5ccc(F)cc5)c4=O)cc3F)c2nc1OC [Compound 364] , IC50: < 0.1 µM
